system: Saccharomyces cerevisiae; assay: protein stability index of tFT-peptide fusion (C-terminal peptide) (PSI (0-1 scale)); higher = more stable (slower turnover); conditions: genetic background: wild type; temperature: 30 C
Experimental readout: protein stability index
Number, no unit, nothing else.

YLADELSKALLA [RFA1 C-terminal 12 aa]; 0.654

## Task Suppose we examine the sequence LKNYLEAQIAKK [YPR097W C-terminal 12 aa] ; what protein stability index value has been reported?
## Result 0.721

## Task Suppose we examine the sequence LGNNAVGLAKAI [PEP4 C-terminal 12 aa] ; what protein stability index value has been reported?
## Result 0.678

* * *

system: Saccharomyces cerevisiae; test: protein stability index of tFT-peptide fusion (C-terminal peptide) (PSI (0-1 scale)); higher = more stable (slower turnover); conditions: genetic background: doa10 deletion; temperature: 30 C
Would you mind labelling by protein stability index? At or over 0.4 is t, under is f.

For orientation, consider the following solved cases.
FFSCFFFSVLYR; t
WFLLILFSAFAV; f
TFRPWPLHILAL; f
FFCFFWLFHWFG; t

## Task Has GFGRDHGNDTGP a recorded protein stability index greater than or equal to 0.4?
## Result t

## Task Has VVGVLLLYLNPF a recorded protein stability index greater than or equal to 0.4?
## Result f

## Task Has LFRNIFLFVFLI a recorded protein stability index greater than or equal to 0.4?
## Result f

## Task Has AFAFLLHRFLLV a recorded protein stability index greater than or equal to 0.4?
## Result f

* * *

system: Saccharomyces cerevisiae; assay: protein stability index of tFT-peptide fusion (C-terminal peptide) (PSI (0-1 scale)); higher = more stable (slower turnover); conditions: genetic background: wild type; temperature: 30 C
Below, each of the sequences is paired with its reported protein stability index value.

YYLAVGNRIASR; 0.688
INVCVLSSSTAS; 0.684
RRPRPRSGWILL; 0.69

Switching to the query record.
## Task Suppose we examine the sequence PQTAGTHRARVN ; what protein stability index value has been reported?
## Result 0.698

* * *

tested on: Saccharomyces cerevisiae; assay: protein stability index of tFT-peptide fusion (C-terminal peptide) (PSI (0-1 scale)); higher = more stable (slower turnover); settings: genetic background: wild type; temperature: 30 C
Experimental readout: protein stability index

# annotated cases, reported protein stability index shown
YKNKRSNKRKHK; 0.702
ELWCLGVLGGDV; 0.708

Switching to the query record.
## Task Query protein stability index on Saccharomyces cerevisiae for TESGVCWCRREV
## Result 0.685

* * *

system: Saccharomyces cerevisiae; assay: protein stability index of tFT-peptide fusion (C-terminal peptide) (PSI (0-1 scale)); higher = more stable (slower turnover); settings: genetic background: wild type; temperature: 30 C
Below, each of the sequences is paired with its reported protein stability index value.
Number, no unit, nothing else.

# annotated cases, reported protein stability index shown
AREGARVVPVGR; 0.717
ISHPTPQSVPAI; 0.612
LYPDTDSLTPLP; 0.725
PPPLPPPAPPPP; 0.658
PPPAPPPPPPPP; 0.693
SFIGEDHQCVFY; 0.723
YINFQKMRKKFD; 0.723
DNKEIEQTIRNK; 0.63

## Task Query protein stability index on Saccharomyces cerevisiae for LYHPRLAPLPRT
## Result 0.627

## Task Query protein stability index on Saccharomyces cerevisiae for RKKTKKEKSEEI
## Result 0.694
